subject of test: Serotonin 5-HT1A (Homo sapiens)
Construct: host or cells: CHO-K1
Sequence (P08908 1-422): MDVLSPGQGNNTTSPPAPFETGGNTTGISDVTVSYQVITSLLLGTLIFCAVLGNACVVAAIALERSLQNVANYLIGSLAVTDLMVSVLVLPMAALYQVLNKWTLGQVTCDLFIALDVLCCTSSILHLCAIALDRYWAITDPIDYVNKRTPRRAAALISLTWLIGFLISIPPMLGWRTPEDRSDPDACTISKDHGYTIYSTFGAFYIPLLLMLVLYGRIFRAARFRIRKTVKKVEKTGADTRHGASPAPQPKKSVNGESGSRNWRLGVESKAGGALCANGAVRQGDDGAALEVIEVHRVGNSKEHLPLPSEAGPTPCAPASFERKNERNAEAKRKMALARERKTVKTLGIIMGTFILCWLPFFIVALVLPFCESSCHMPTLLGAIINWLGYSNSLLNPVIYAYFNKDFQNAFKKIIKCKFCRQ
method notes: Radioligand displacement binding assay, [3H]8-OH-DPAT, 5-HT1A
particulars: 0.3 μM
For each entry below, report its inhibition at 0.3 µM value.
// return numeric value only (unit: %, not printed)

Name the recorded inhibition at 0.3 µM of the item CC[C@@H](O)C(C[C@H](C)N)(c1ccccc1)c1ccccc1 in your answer. 1

Name the recorded inhibition at 0.3 µM of the item CC[C@H](O)C(C[C@@H](C)NC)(c1ccccc1)c1ccccc1 in your answer. -1

Name the recorded inhibition at 0.3 µM of the item CC[C@@H](O)C(C[C@@H](C)NC)(c1ccccc1)c1ccccc1 in your answer. -9

Name the recorded inhibition at 0.3 µM of the item CC[C@H](O)C(C[C@H](C)N)(c1ccccc1)c1ccccc1 in your answer. 24

Name the recorded inhibition at 0.3 µM of the item CCC(=O)C(C[C@H](C)N(C)C)(c1ccccc1)c1ccccc1 [(S)-methadone, reference compound] in your answer. -2

Name the recorded inhibition at 0.3 µM of the item CC[C@H](O)C(C[C@H](C)NC)(c1ccccc1)c1ccccc1 in your answer. -4

Name the recorded inhibition at 0.3 µM of the item CCC1=N[C@H](C)CC1(c1ccccc1)c1ccccc1 [(R)-EMDP] in your answer. 0

Name the recorded inhibition at 0.3 µM of the item CC[C@@H](O)C(C[C@@H](C)N)(c1ccccc1)c1ccccc1 in your answer. 0

Name the recorded inhibition at 0.3 µM of the item CC[C@H](O)C(C[C@@H](C)N)(c1ccccc1)c1ccccc1 in your answer. -11

Name the recorded inhibition at 0.3 µM of the item CC[C@@H](O)C(C[C@H](C)NC)(c1ccccc1)c1ccccc1 in your answer. 5

----------
For each entry below, report its inhibition at 1 µM value.
subject of test: Serotonin 5-HT5A (Homo sapiens, UniProt P47898)
Construct: host or cells: CHO-K1
Sequence (P47898 whole entry): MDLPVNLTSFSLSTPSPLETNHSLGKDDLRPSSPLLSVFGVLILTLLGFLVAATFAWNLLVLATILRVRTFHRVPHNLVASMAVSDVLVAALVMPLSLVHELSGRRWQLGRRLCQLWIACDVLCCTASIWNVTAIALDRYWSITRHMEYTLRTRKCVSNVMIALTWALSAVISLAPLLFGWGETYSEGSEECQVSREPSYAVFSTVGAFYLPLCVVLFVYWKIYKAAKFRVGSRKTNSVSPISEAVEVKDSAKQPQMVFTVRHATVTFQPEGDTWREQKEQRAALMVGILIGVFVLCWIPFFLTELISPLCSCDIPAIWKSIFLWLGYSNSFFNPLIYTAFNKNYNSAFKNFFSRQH
method notes: Radioligand displacement binding assay, [3H]LSD, 5-HT5A
particulars: 1 μM
// return numeric value only (unit: %, not printed)

Name the recorded inhibition at 1 µM of the item CC[C@@H](O)C(C[C@H](C)NC)(c1ccccc1)c1ccccc1 in your answer. -1

Name the recorded inhibition at 1 µM of the item CC[C@@H](O)C(C[C@@H](C)NC)(c1ccccc1)c1ccccc1 in your answer. 13

Name the recorded inhibition at 1 µM of the item CC[C@H](O)C(C[C@@H](C)NC)(c1ccccc1)c1ccccc1 in your answer. 4

Name the recorded inhibition at 1 µM of the item CC[C@H](O)C(C[C@H](C)N)(c1ccccc1)c1ccccc1 in your answer. -7

Name the recorded inhibition at 1 µM of the item CC[C@@H](O)C(C[C@@H](C)N)(c1ccccc1)c1ccccc1 in your answer. 4

Name the recorded inhibition at 1 µM of the item CC[C@H](O)C(C[C@@H](C)N)(c1ccccc1)c1ccccc1 in your answer. -1

----------
subject of test: Serotonin transporter SERT (Homo sapiens, UniProt P31645)
Construct: host or cells: HEK-293
Sequence (P31645 whole entry): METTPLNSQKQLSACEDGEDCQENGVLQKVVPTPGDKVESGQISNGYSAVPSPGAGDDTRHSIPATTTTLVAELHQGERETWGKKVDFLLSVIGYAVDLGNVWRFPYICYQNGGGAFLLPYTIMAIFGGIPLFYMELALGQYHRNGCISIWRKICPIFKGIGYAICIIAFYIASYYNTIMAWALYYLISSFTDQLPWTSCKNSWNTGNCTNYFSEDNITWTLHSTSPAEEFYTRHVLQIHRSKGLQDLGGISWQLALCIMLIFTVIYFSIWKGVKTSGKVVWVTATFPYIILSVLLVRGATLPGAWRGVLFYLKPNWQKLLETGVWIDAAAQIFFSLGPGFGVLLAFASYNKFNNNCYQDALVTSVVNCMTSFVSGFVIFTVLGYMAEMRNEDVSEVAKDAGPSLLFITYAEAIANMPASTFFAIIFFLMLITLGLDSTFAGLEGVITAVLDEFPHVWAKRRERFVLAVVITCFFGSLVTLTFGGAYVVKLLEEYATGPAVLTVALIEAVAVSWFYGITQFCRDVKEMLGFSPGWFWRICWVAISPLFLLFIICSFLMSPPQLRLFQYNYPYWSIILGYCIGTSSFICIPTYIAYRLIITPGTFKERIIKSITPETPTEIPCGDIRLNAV
method notes: Radioligand displacement binding assay, [3H]paroxetine, SERT
particulars: 10 μM
For each entry below, report its inhibition at 10 µM value.
// return numeric value only (unit: %, not printed)

Name the recorded inhibition at 10 µM of the item CC[C@@H](O)C(C[C@@H](C)NC)(c1ccccc1)c1ccccc1 in your answer. 69

Name the recorded inhibition at 10 µM of the item CC[C@@H](O)C(C[C@@H](C)N)(c1ccccc1)c1ccccc1 in your answer. 20

Name the recorded inhibition at 10 µM of the item CC[C@H](O)C(C[C@H](C)NC)(c1ccccc1)c1ccccc1 in your answer. 25

----------
subject of test: Sigma σ1 (Homo sapiens)
Construct: Sigma σ1; Source: Human Jurkat cells; host or cells: Jurkat
Sequence (Q99720 whole entry): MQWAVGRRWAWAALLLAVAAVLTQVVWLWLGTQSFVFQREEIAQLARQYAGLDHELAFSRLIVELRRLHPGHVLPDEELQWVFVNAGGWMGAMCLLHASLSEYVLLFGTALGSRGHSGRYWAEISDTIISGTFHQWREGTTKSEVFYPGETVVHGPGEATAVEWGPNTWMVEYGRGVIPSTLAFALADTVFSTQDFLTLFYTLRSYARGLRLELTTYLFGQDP
method notes: Radioligand displacement binding assay, [3H]pentazocine, sigma σ1
particulars: 3 μM
Output Criterion met for inhibition at 3 µM not less than 60%; output Criterion not met otherwise.

Check if inhibition at 3 µM >= 60% (inclusive). Item: CCC(=O)C(C[C@H](C)N(C)C)(c1ccccc1)c1ccccc1 [(S)-methadone, reference compound] Criterion met

Check if inhibition at 3 µM >= 60% (inclusive). Item: CC[C@@H](O)C(C[C@@H](C)N)(c1ccccc1)c1ccccc1 [(3R,6R)-DNML, (3R,6R)-6-amino-4,4-diphenylheptan-3-ol] Criterion not met

Check if inhibition at 3 µM >= 60% (inclusive). Item: CC[C@H](O)C(C[C@H](C)N)(c1ccccc1)c1ccccc1 [(3S,6S)-DNML, (3S,6S)-6-amino-4,4-diphenylheptan-3-ol] Criterion met

Check if inhibition at 3 µM >= 60% (inclusive). Item: CC[C@@H](O)C(C[C@@H](C)NC)(c1ccccc1)c1ccccc1 [(3R,6R)-NML] Criterion not met

Check if inhibition at 3 µM >= 60% (inclusive). Item: CC[C@H](O)C(C[C@H](C)NC)(c1ccccc1)c1ccccc1 [(3S,6S)-NML] Criterion met

Check if inhibition at 3 µM >= 60% (inclusive). Item: CC[C@H](O)C(C[C@@H](C)N)(c1ccccc1)c1ccccc1 [(3S,6R)-DNML, (3S,6R)-6-amino-4,4-diphenylheptan-3-ol] Criterion not met

Check if inhibition at 3 µM >= 60% (inclusive). Item: CC[C@H](O)C(C[C@@H](C)NC)(c1ccccc1)c1ccccc1 [(3S,6R)-NML] Criterion not met

Check if inhibition at 3 µM >= 60% (inclusive). Item: CCC1=N[C@H](C)CC1(c1ccccc1)c1ccccc1 [(R)-EMDP] Criterion not met

Check if inhibition at 3 µM >= 60% (inclusive). Item: CC[C@@H](O)C(C[C@H](C)NC)(c1ccccc1)c1ccccc1 [(3R,6S)-NML] Criterion met

----------
For each entry below, report its inhibition at 30 µM value.
subject of test: Histamine H1 (Homo sapiens)
Construct: host or cells: CHO-K1
method notes: Radioligand displacement binding assay, [3H]pyrilamine, H1
particulars: 30 μM
// return numeric value only (unit: %, not printed)

Name the recorded inhibition at 30 µM of the item CCC1=N[C@H](C)CC1(c1ccccc1)c1ccccc1 [(R)-EMDP] in your answer. 62

Name the recorded inhibition at 30 µM of the item CCC(=O)C(C[C@H](C)N(C)C)(c1ccccc1)c1ccccc1 [(S)-methadone, reference compound] in your answer. 73

Name the recorded inhibition at 30 µM of the item CC[C@H](O)C(C[C@@H](C)NC)(c1ccccc1)c1ccccc1 in your answer. 27

Name the recorded inhibition at 30 µM of the item CC[C@H](O)C(C[C@@H](C)N)(c1ccccc1)c1ccccc1 in your answer. 28

Name the recorded inhibition at 30 µM of the item CC[C@@H](O)C(C[C@@H](C)N)(c1ccccc1)c1ccccc1 in your answer. 9

Name the recorded inhibition at 30 µM of the item CC[C@@H](O)C(C[C@@H](C)NC)(c1ccccc1)c1ccccc1 in your answer. 20

----------
subject of test: Histamine H1 (Homo sapiens, UniProt P35367)
Construct: host or cells: CHO-K1
Sequence (P35367 whole entry): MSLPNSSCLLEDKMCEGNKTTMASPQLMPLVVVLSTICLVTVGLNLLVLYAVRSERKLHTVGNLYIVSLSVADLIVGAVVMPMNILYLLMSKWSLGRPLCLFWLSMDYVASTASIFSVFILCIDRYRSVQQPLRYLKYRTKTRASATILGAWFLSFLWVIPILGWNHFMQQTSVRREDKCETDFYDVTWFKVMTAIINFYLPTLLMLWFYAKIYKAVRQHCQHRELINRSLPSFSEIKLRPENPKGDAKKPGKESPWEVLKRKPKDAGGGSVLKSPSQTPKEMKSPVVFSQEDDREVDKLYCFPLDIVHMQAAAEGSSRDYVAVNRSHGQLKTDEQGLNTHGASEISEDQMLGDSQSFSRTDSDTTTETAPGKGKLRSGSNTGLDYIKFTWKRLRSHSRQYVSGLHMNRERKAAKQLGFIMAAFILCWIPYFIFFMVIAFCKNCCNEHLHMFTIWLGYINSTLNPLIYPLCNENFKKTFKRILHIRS
method notes: Radioligand displacement binding assay, [3H]pyrilamine, H1
particulars: 10 μM
Output YES for inhibition at 10 µM not less than 6%; output NO otherwise.

Check if inhibition at 10 µM >= 6% (inclusive). Item: CC[C@@H](O)C(C[C@@H](C)NC)(c1ccccc1)c1ccccc1 [(3R,6R)-NML] YES

Check if inhibition at 10 µM >= 6% (inclusive). Item: CC[C@@H](O)C(C[C@H](C)N)(c1ccccc1)c1ccccc1 [(3R,6S)-DNML, (3R,6S)-6-amino-4,4-diphenylheptan-3-ol] NO

Check if inhibition at 10 µM >= 6% (inclusive). Item: CC[C@H](O)C(C[C@@H](C)NC)(c1ccccc1)c1ccccc1 [(3S,6R)-NML] YES

Check if inhibition at 10 µM >= 6% (inclusive). Item: CC[C@H](O)C(C[C@H](C)N)(c1ccccc1)c1ccccc1 [(3S,6S)-DNML, (3S,6S)-6-amino-4,4-diphenylheptan-3-ol] NO

Check if inhibition at 10 µM >= 6% (inclusive). Item: CC[C@H](O)C(C[C@@H](C)N)(c1ccccc1)c1ccccc1 [(3S,6R)-DNML, (3S,6R)-6-amino-4,4-diphenylheptan-3-ol] YES
